Data provenance is patent US20260116991A1.

In this section we review reported OD450 at 66.66 nM values for a set of binders.
- target_system: biotinylated labeled human GPC3 protein (produced in-house) (human, UniProt P51654 25-559, limits assumed, biotinylated (Dojindo, Cat. No. LK03); sites not stated)
- test_details: ELISA, biotinylated human GPC3 protein
Provide only the numeric value, understood in OD450.

# binder, unit_text, OD450 at 66.66 nM
records = [
    ("hAb001H2L1b (antibody, human IgG1, V domains shown, Humanized F2.169.2; VH H2 + VL L1b; expressed as human IgG1) VH: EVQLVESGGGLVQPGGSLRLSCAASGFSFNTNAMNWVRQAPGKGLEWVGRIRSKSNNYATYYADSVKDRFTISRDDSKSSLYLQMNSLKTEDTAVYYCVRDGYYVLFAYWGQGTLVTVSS VL: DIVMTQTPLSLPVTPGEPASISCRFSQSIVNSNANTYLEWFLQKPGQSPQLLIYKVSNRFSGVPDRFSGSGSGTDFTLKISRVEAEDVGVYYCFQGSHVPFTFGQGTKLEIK", "OD450", 2.67),
    ("hAb007LH1L1a (antibody, human IgG1, V domains shown, Humanized F3.81.19; VH H1 + VL L1a; expressed as human IgG1) VH: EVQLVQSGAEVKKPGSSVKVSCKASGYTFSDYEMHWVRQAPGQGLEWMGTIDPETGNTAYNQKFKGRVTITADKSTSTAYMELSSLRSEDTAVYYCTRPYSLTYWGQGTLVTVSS VL: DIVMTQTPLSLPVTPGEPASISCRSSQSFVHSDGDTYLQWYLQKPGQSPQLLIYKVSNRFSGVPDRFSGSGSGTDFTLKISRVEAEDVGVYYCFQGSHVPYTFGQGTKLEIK", "OD450", 2.22),
]

Proceed to the following item.
For hAb001H2L1a (antibody, human IgG1, V domains shown, Humanized F2.169.2; VH H2 + VL L1a; expressed as human IgG1) VH: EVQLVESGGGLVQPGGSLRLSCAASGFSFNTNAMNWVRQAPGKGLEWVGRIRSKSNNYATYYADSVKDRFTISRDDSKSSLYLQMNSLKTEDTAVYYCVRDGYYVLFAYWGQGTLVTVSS VL: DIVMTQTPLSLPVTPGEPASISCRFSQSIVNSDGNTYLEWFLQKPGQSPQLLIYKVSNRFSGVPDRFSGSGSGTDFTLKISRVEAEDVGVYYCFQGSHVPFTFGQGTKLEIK the binder record lists OD450 at 66.66 nM as 2.58
